For each of the molecules below, state its melting point.

Q: Name the recorded melting point for N#Cc1c(-c2ccc(NC(=O)NC3CCC3)cc2)n(C2CC2)c2cc(N3CCOCC3)ccc12 .
A: 230 to 232 °C

Q: Name the reported melting point value associated with the molecule N#Cc1c(-c2cnc(NC3CCCC3)nc2)n(C2CCC2)c2cc(Oc3ncccn3)ccc12
A: 230 to 231 °C

Q: Which value of melting point has been reported for CCOc1ccc2c(C#N)c(-c3ccc(NC(=O)OCCOCCOC)cc3)n(C3CCC3)c2c1 in the records?
A: 65 to 72 °C

Q: Endpoint output: melting point of CCCS(=O)(=O)Nc1ccc(-c2c(C#N)c3ccc(Oc4ncccc4C#N)cc3n2C2CCC2)c(OC)c1 . Value?
A: 227 to 230 °C

Q: Please give the measured melting point for this molecule: CCn1c(-c2ccc(N3CCCS3(=O)=O)cc2)c(C#N)c2ccc(N3CCN(S(=O)(=O)C4CC4)CC3)cc21
A: 278 to 280 °C

Q: Recorded melting point of C[C@@H](OC(=O)Nc1ccc(-c2c(C#N)c3ccc(C(=O)N4CCCC4)cc3n2C2CCC2)cc1)C1CC1 , please.
A: 124 to 127 °C

Q: Given the molecule CCCOC(=O)Nc1ccc(-c2c(C#N)c3ccc(OCCOC)cc3n2CC)cc1 , what is its reported melting point?
A: 154 to 156 °C

Q: Requested field: melting point. Item: CCn1c(-c2ccc(NC(=O)NCCc3ccccc3)cc2)c(C#N)c2ccc(OCCOC)cc21
A: 168 to 171 °C

Q: Quick check: melting point of COCCOc1ccc2c(C#N)c(-c3ccc(C(=O)NC(C)C)cc3)n(C3CCC3)c2c1 ?
A: 202 to 204 °C

Q: Query: melting point; subject: CC[C@H](C)NS(=O)(=O)Nc1ccc(-c2c(C#N)c3ccc(OC4CCOCC4)cc3n2C2CCC2)cc1
A: 196 to 198 °C

Q: Look at this molecule and give its reported melting point. COc1ccnc(Oc2ccc3c(C#N)c(-c4ccc(NC(=O)O[C@H](C)C5CC5)cc4)n(C4CCC4)c3c2)n1
A: 161 to 164 °C

* * *

Assignment: determine reported melting point for the given compounds.

Q: Param item = Cc1ccccc1CNc1ccc(-c2c(C#N)c3ccc(OC4CCOCC4)cc3n2C2CCC2)cc1 ; retrieve measured melting point.
A: 168 to 172 °C

Q: I'd like to know its melting point. The compound in question is C[C@@H](OC(=O)Nc1ccc(-c2c(C#N)c3ccc(OC(F)F)cc3n2C2CCC2)cc1)C(F)(F)F
A: 161 to 162 °C

Q: Requested read-out: melting point. Entry: CC(C)OC(=O)Nc1ccc(-c2c(C#N)c3ccc(OC4CCS(=O)(=O)CC4)cc3n2C2CCC2)cc1
A: 245 to 249 °C

Q: Need melting point of CC(C)NC(=O)Nc1ccc(-c2c(C#N)c3ccc(OC4CCOC4)cc3n2C2CCC2)cc1 (stereo not shown) , thanks.
A: 183 to 184 °C

Q: Please look up its melting point: N#Cc1c(-c2ccc(NCc3ccccc3C(F)(F)F)cc2)n(C2CCC2)c2cc(OCCF)ccc12
A: 183 to 185 °C

Q: Consider the compound shown here: C[C@@H](OC(=O)Nc1ccc(-c2c(C#N)c3ccc(OCS(C)(=O)=O)cc3n2C2CCC2)cc1)C1CC1 What is its recorded melting point?
A: 218 to 223 °C

Q: Requested read-out: melting point. Entry: C[C@@H](OC(=O)Nc1ccc(-c2c(C#N)c3ccc(OC4CCS(=O)(=O)CC4)cc3n2C2CCC2)cc1)C1CC1
A: 226 to 231 °C
